System: VchCAST RNA-guided transposition machinery (E. coli BL21(DE3) host, lacZ target)
Assay: relative integration efficiency (T-LR orientation) vs wild-type transposon end (log2 (normalized fold change)); transposon end mutated: right end (5 bp flank + 75 bp right end); higher = more efficient transposition
ASSAY READOUT: relative integration efficiency (log2)
One number for each entry.

ACATTTGTTGATACAACCATAAAATGATAATTACAACCATAAAATGATAATTATGATAATTATCATTTTATGGTTGCTCTGATCATAGTCAGACCAACATTGCTACGACCCGTATTCGCACCGACAC 1.99

Fill in relative integration efficiency (log2) for each of the 2 sequences listed.
1. ACATTTGTTGATACAACCATAAAATGATAATTACTCTGATCATAGTCAGACCAACATTGCTACGACCCGTATTCACCCATAAATTGATAATTATCACACCCATAAATTGATATTGCCGCACCGACAC
2. ACATTTGTTGATAAAACCATACGTTGATTTTACCACCCATAAATTGATAATTATCACACCCATAAATTGATATTGCCTCTGATCATAGTCAGACCAACATTGCTACGACCCGTATTCGCACCGACAC

*A*
0.261
-2.98

Fill in relative integration efficiency (log2) for each of the 5 sequences listed.
1. ACATTAGTTGATACAACCATAAAATGATAATTACACCCATAAATTGATCATTATCACACCCAATTTAACTATAACGCTCTGATCATAGTCAGACCAACATTGCTACGACCCGTATTCGCACCGACAC
2. ACATTTGTTGATACAACCATAAAATGATAATTACACCCATAAATTGATAATTATCACCACCATAAATTGATATTGCCTCTGATCATAGTCAGACCAACATTGCTACGACCCGTATTCGCACCGACAC
3. ACATTTGTTGATACAACCATAAAATGATAATTACTCTGATCACCCATAAATTGATAATTATCACACCCATAAATTGATATTGCCATAGTCAGACCAACATTGCTACGACCCGTATTCGCACCGACAC
4. ACATTTGTTGATATGTTCAACCATAAAATGATAATTACACCCATAAATTGATAATTATCACACCCATAAATTGATATTGCCTCTGATCATAGTCAGACCAACATTGCTACGACCCGTATTCGCACCG
5. ACATTTGTTGATACAACCATTAAATGATAATTCCACCCATAATTTGATAATTATCACACCCAATTTAACTATAACGCTCTGATCATAGTCAGACCAACATTGCTACGACCCGTATTCGCACCGACAC

*A*
[-5.7, 1.14, 0.359, -7.23, 2.52]

Fill in relative integration efficiency (log2) for each of the 2 sequences listed.
1. ACATTTGTTGATACAACCATAAAATGATAATTACACCCATAAATTGATAATTATCACACCCATAAATTGATATTGCCTCTGATAACTTCGTATAAAGTATCCTATACGAAGTTATTCGCACCGACAC
2. ACATTTGTTGATACACCCATAAATTGATATTGCCACCCATAAATTGATATTGCTCACACCCATAAATTGATATTGCCTCTGATCATAGTCAGACCAACATTGCTACGACCCGTATTCGCACCGACAC

*A*
[0.85, 0.0807]
